- EXPERIMENTAL_SYSTEM: GalNAc(b1-4)GlcNAc(b1-2)Man(a1-3)[GalNAc(b1-4)GlcNAc(b1-2)Man(a1-6)]Man(b1-4)GlcNAc(b1-4)GlcNAc
- TEST_DESCRIPTION: glycan array binding signal (z-score within array); higher = stronger binding
- TEST_CONDITIONS: glycan notation: IUPAC condensed, linker removed
About 410 targets per protein were measured; listed, in parts, are those with the strongest signals and a random draw of the rest.
// values below are reported glycan array binding signal (z-score)
A bare number is all that is needed in reply.

Entry Spy 2007 (Streptococcus pyogenes), Q99XV3 (protein) MKKGFFLMAMVVSLVMIAGCDKSANPKQPTQGMSVVTSFYPMYAMTKEVSGDLNDVRMIQSGAGIHSFEPSVNDVAAIYDADLFVYHSHTLEAWARDLDPNLKKSKVDVFEASKPLTLDRVKGLEDMEVTQGIDPATLYDPHTWTDPVLAGEEAVNIAKELGRLDPKHKDSYTKNAKAFKKEAEQLTEEYTQKFKKVRSKTFVTQHTAFSYLAKRFGLKQLGISGISPEQEPSPRQLKEIQDFVKEYNVKTIFAEDNVNPKIAHAIAKSTGAKVKTLSPLEAAPSGNKTYLENLRANLEVLYQQLK : reported glycan array binding signal (z-score) = ?
3.5

---
Entry Pwp7 (Candida glabrata) (protein) MGSSHHHHHHSSGLVPRGSHMASKNPVDFPNLCQYPNLDGAVAGFDTEIYNADPSILINFSLWPILQFPKEWHKTIGRAITTQTNFKLPASDTTLFGVSIPTQNILIEFRGYFIPPKSGTYTFALYLTDDGSAMFLGNDAAFPCGNITSWSNPTNDQVSVSDYDPKKKTLTVYMVAGVAYPLRIAYYNREKGGSLTASFVDPDGLTHSDWNGYIWTLPSCDNCKYS : reported glycan array binding signal (z-score) = ?
2.13
